# TARGET: CB1R (Mus musculus, UniProt P47746)
# Construct: crude membranes from mouse brain for CB1R; from tissue; host or cells: mouse brain, crude membranes
# Sequence (P47746 whole entry): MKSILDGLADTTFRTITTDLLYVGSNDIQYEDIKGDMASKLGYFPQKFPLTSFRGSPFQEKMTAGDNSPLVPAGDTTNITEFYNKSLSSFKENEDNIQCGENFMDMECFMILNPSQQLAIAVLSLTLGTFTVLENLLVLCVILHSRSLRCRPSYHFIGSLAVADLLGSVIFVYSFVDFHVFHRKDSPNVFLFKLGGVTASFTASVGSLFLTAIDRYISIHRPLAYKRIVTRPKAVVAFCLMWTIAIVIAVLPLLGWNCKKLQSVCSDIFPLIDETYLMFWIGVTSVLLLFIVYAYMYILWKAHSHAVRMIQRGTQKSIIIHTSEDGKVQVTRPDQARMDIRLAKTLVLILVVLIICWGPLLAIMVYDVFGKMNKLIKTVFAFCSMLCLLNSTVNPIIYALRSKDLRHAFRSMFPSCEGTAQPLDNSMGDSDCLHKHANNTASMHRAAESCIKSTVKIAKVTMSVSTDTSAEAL
# EXPERIMENT SUMMARY: Radioligand binding assay, competition displacement of [3H]CP-55,940, CB1R
# CONDITION SUMMARY: separated isomer SS; read-out: Ki (μM) SS
METRIC NAME: Ki

Returns the measured Ki for the input compound. Input: CC(C)C(NC(=O)c1ccco1)C(=O)NCC(c1ccccc1Cl)c1c[nH]c2ccccc12 (single isomer, unassigned)
1.66 µM

###

# TARGET: CB1R (Mus musculus)
# Construct: crude membranes from mouse brain for CB1R; from tissue; host or cells: mouse brain, crude membranes
# EXPERIMENT SUMMARY: [35S]GTPγS binding, with and without CB1R agonist HU-210
# Format: biochemical
# CONDITION SUMMARY: mouse brain membranes, compounds at 10 μM, with and without HU-210 (100 nM)
METRIC NAME: activity (agonism, antagonism, inverse agonism) properties

Worked set:
>  <COMPOUND>
CC1=C(C(=O)Nc2ccccc2C(F)(F)F)C(c2cccc(Oc3ccccc3)c2)NC(=S)N1 (stereo not drawn) [Compound 2]

>  <RESULT>
inverse agonists

$$$$
>  <COMPOUND>
CC(=O)NC(CC(=O)NCC(c1ccccc1Cl)c1c[nH]c2ccccc12)c1ccc(C)cc1 (stereo not drawn) [Compound 14]

>  <RESULT>
inverse agonists

$$$$
>  <COMPOUND>
Cc1ccc(C(=O)C2SC(Nc3ccc(Cl)cc3)=C(C(=O)Nc3ccc(Cl)cc3)C2=N)cc1 (stereo not drawn) [Compound 11]

>  <RESULT>
inverse agonists

$$$$
>  <COMPOUND>
Cc1ccc(NC(=S)Nc2ccc(C(C)C)cc2)c(S(=O)(=O)Nc2ccc(Cl)cc2)c1 [Compound 12]

>  <RESULT>
inverse agonists

$$$$

Returns the measured activity (agonism, antagonism, inverse agonism) properties for the input compound. Input: CC1=C(C(=O)Nc2ccccc2C(F)(F)F)C(c2ccc(OCc3ccccc3)cc2)NC(=S)N1 (stereo not drawn) [Compound 8]
inverse agonists

###

# TARGET: CB1R (Mus musculus, UniProt P47746)
# Construct: crude membranes from mouse brain for CB1R; from tissue; host or cells: mouse brain, crude membranes
# EXPERIMENT SUMMARY: Radioligand binding assay, competition displacement of [3H]CP-55,940, CB1R
# CONDITION SUMMARY: Mix (not separated); read-out: Ki (μM) Mix
Catalogue of Ki values
The reply should contain only the number, in µM.

Worked set:
>  <COMPOUND>
CC(=O)NC(CC(=O)NCC(c1ccccc1Cl)c1c[nH]c2ccccc12)c1ccc(C)cc1 (centres unmarked)

>  <TARGET>
CB1R (Mus musculus, UniProt P47746)

>  <RESULT>
1.2

$$$$
>  <COMPOUND>
CC1=C(C(=O)Nc2ccccc2C(F)(F)F)C(c2ccc(OCc3ccccc3)cc2)NC(=S)N1 (centres unmarked)

>  <TARGET>
CB1R (Mus musculus, UniProt P47746)

>  <RESULT>
0.346

$$$$
>  <COMPOUND>
CC1=C(C(=O)Nc2ccccc2C(F)(F)F)C(c2cccc(Oc3ccccc3)c2)NC(=S)N1 (centres unmarked)

>  <TARGET>
CB1R (Mus musculus, UniProt P47746)

>  <RESULT>
3.36

$$$$
>  <COMPOUND>
CC(C)C(NC(=O)c1ccco1)C(=O)NCC(c1ccccc1Cl)c1c[nH]c2ccccc12 (centres unmarked)

>  <TARGET>
CB1R (Mus musculus, UniProt P47746)

>  <RESULT>
1

$$$$

Query compound follows.
Returns the measured Ki for the input compound. Input: CC(=O)c1cccc(S(=O)(=O)NCCC(=O)NCC(c2ccccc2Cl)c2c[nH]c3ccccc23)c1 (centres unmarked)
1.1

All values here come from patent US20230172929A1.
